# System: panel of 55 breast cancer cell lines
# assay_explanation: Cell growth inhibition assay (Cell Titer Glo, 72 h, 9 doses; GI50, TGI, LC50)
# Format: cell-based, human
# measurement_parameters: cell line SUM149PT; value is the negative log10 of mol/L
For each of the molecules below, state its GI50.

[
  {
    "molecule": "O=c1[nH]c(=O)n([C@H]2C[C@H](O)[C@@H](CO)O2)cc1F [5-FdUR]",
    "GI50": 4.14
  },
  {
    "molecule": "CC(C)(C)c1cc(C=C(C#N)C#N)cc(Br)c1O [AG1024]",
    "GI50": 4.48
  },
  {
    "molecule": "Cc1cc(Nc2cc(N3CCN(C)CC3)nc(Sc3ccc(NC(=O)C4CC4)cc3)n2)n[nH]1 [VX-680]",
    "GI50": 5.07
  },
  {
    "molecule": "N.N.O=C([O-])C1(C(=O)[O-])CCC1.[Pt+2] [Carboplatin]",
    "GI50": 4.87
  },
  {
    "molecule": "CC(/C=C/C(=O)NO)=C\\[C@@H](C)C(=O)c1ccc(N(C)C)cc1 [Trichostatin A]",
    "GI50": 5.14
  },
  {
    "molecule": "COc1cc2c(Nc3ccc(NC(=O)c4ccccc4)cc3)ncnc2cc1OCCCN1CCOCC1 [ZM 447439]",
    "GI50": 4.18
  },
  {
    "molecule": "COc1ccc(C2=N[C@@H](c3ccc(Cl)cc3)[C@@H](c3ccc(Cl)cc3)N2C(=O)N2CCNC(=O)C2)c(OC(C)C)c1 [Nutlin 3a]",
    "GI50": 4.56
  }
]

GI50 for CCn1cc(-c2ccnc3[nH]c(-c4cccc(CN(C)C)c4)cc23)c(-c2ccc(NC(=O)N(C)C)cc2)n1 [GSK1070916] ?
5.48

* * *

# System: panel of 55 breast cancer cell lines
# assay_explanation: Cell growth inhibition assay (Cell Titer Glo, 72 h, 9 doses; GI50, TGI, LC50)
# Type: cell-based, human
# measurement_parameters: Homo sapiens, HCC202, HCC202 cell line; censored GI50 values; read-out: GI50 (converted)
Consider the following molecules; for each one, report its GI50.
Give bare numbers, in nM.

[
  {
    "molecule": "C#Cc1cccc(Nc2ncnc3cc(OCCOC)c(OCCOC)cc23)c1 [Erlotinib]",
    "subject_of_test": "panel of 55 breast cancer cell lines",
    "unit": "nM",
    "number": 37200
  },
  {
    "molecule": "C/C(=C\\c1csc(C)n1)[C@@H]1C[C@@H]2O[C@]2(C)CCC[C@H](C)[C@H](O)[C@@H](C)C(=O)C(C)(C)[C@@H](O)CC(=O)N1 [Ixabepilone]",
    "subject_of_test": "panel of 55 breast cancer cell lines",
    "unit": "nM",
    "number": 20000
  },
  {
    "molecule": "O=C1c2ccccc2-[n+]2ccc3c([nH]c4ccccc43)c21 [Fascaplysin]",
    "subject_of_test": "panel of 55 breast cancer cell lines",
    "unit": "nM",
    "number": 42.7
  },
  {
    "molecule": "COc1cccc2c1C(=O)c1c(O)c3c(c(O)c1C2=O)C[C@@](O)(C(=O)CO)C[C@@H]3O[C@H]1C[C@H](N)[C@H](O)[C@H](C)O1 [Doxorubicin]",
    "subject_of_test": "panel of 55 breast cancer cell lines",
    "unit": "nM",
    "number": 525
  },
  {
    "molecule": "COc1cc([C@@H]2c3cc4c(cc3[C@@H](O[C@@H]3O[C@@H]5CO[C@@H](C)O[C@H]5[C@H](O)[C@H]3O)[C@H]3COC(=O)[C@H]23)OCO4)cc(OC)c1O [Etoposide]",
    "subject_of_test": "panel of 55 breast cancer cell lines",
    "unit": "nM",
    "number": 933
  }
]

Given the entry CO[C@H]1C[C@@H]2CC[C@@H](C)[C@@](O)(O2)C(=O)C(=O)N2CCCC[C@H]2C(=O)O[C@H]([C@H](C)C[C@@H]2CC[C@@H](O)[C@H](OC)C2)CC(=O)[C@H](C)/C=C(\C)[C@@H](O)[C@@H](OC)C(=O)[C@H](C)C[C@H](C)/C=C/C=C/C=C/1C [Rapamycin] , report its measured GI50.
5.01

Just for reference, patent US10770169B2 is where these values come from.
